The measured values listed here are drawn from patent US11993574B2.

- System: IL-17A
- Test: IL-17 release from differentiated primary human T-cells (IL-17A HTRF assay)
- Type: cell-based
- Assay Context: primary human CD4+ T cells differentiated into Th17 cells, 45-hour incubation, IL-17A in supernatant; read-out: hIL17 IC50
Could you mark each record Met if its IC50 falls strictly under 100 nM, and Not met if it equals or exceeds it?

# example entries with known answers
Mol Smiles: C[C@H]1C(=O)C(C#N)=C[C@@]2(C)c3c(c(-c4ccccc4F)nn3-c3nc4ccccc4s3)CC[C@H]12
Label Value: Met
//
Mol Smiles: C[C@H]1C(=O)C(C#N)=C[C@@]2(C)c3c(c(-c4ccccc4)nn3-c3ccc(-c4ccccc4CO)cc3)CC[C@H]12
Label Value: Met
//
Mol Smiles: C[C@H]1C(=O)C(C#N)=C[C@@]2(C)c3nn(C4CCOCC4)c(-c4ccccc4)c3CC[C@H]12
Label Value: Not met
//
Mol Smiles: C[C@H]1C(=O)C(C#N)=C[C@@]2(C)c3c(c(-c4ccccc4)nn3-c3ccc(-c4cccnc4)cc3)CC[C@H]12
Label Value: Met
//
Mol Smiles: C[C@H]1C(=O)C(C#N)=C[C@@]2(C)c3c(c(-c4ccccc4)nn3CC(F)(F)F)CC[C@H]12
Label Value: Met
//
Mol Smiles: C[C@H]1C(=O)C(C#N)=C[C@@]2(C)c3nc(-c4ccnc5ccccc45)n(-c4cccnc4)c3CC[C@H]12
Label Value: Not met
//
Mol Smiles: C[C@H]1C(=O)C(C#N)=C[C@@]2(C)c3nc(-c4cccc(-c5ccncc5)c4)n(-c4cnn(C)c4)c3CC[C@H]12
Label Value: Not met

Consider now this further molecule.
### Prompt Bench note: check whether "C[C@H]1C(=O)C(C#N)=C[C@@]2(C)c3c(c(-c4ccc(F)cc4)nn3-c3ccc(-c4cncc(F)c4)cc3)CC[C@H]12" shows IC50 below 100 nM
### Response Met

----------
- Tested On: Human RAR-related Orphan Receptor Gamma (RORγ) (Homo sapiens, UniProt P51449)
- Sequence (P51449 269-508 limits assumed): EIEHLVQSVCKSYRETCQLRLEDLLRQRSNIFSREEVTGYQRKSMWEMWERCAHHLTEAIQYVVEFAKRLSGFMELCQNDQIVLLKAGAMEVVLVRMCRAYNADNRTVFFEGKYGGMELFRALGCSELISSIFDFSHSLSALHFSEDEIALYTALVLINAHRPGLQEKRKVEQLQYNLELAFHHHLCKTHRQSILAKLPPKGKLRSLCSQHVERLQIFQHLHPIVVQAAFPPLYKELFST
- Test: RORγ assay (GAL4-RORγ hybrid luciferase reporter, Indigo Biosciences)
- Assay Context: inverse-agonist activity, GAL4-RORγ reporter cells, 23 hours
Recorded IC50 by entry
Output spec: scalar in nM, unitless text.

Worked cases, answers included:
Compound: C[C@H]1C(=O)C(C#N)=C[C@@]2(C)c3nn(-c4ccc(Cl)c(Cl)c4)c(-c4ccccc4)c3CC[C@H]12 [T117]
Reported Measurement: 114

Compound: C[C@H]1C(=O)C(C#N)=C[C@@]2(C)c3c(c(N4CCOCC4)nn3-c3ccc(-c4ccccc4)cc3)CC[C@H]12 [T77]
Reported Measurement: 111

Compound: C[C@H]1C(=O)C(C#N)=C[C@@]2(C)c3nc(-c4cccc(-c5cnn(C)c5)c4)n(-c4cccc(F)c4)c3CC[C@H]12 [T149]
Reported Measurement: 159

Compound: C[C@H]1C(=O)C(C#N)=C[C@@]2(C)c3c(c(-c4ccccc4)nn3-c3ccc(-c4ccccc4F)cc3)CC[C@H]12 [T36]
Reported Measurement: 87

### Prompt If you can, please state the reported IC50 value of CC(C)c1ccc(-n2nc3c(c2-c2ccccc2)CC[C@@H]2[C@@H](C)C(=O)C(C#N)=C[C@@]32C)cc1 [T26] .
### Response 104
